Catalogue of compounds with associated %Inh
- Tested on: BRSK2
- assay_conditions: concentration: 1 μM, replicates: in singlicate; n = 1;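 note: KINOMEscan kinase panel screen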

>  <compound>
Cc1ccc(NC(=O)Nc2ccc(Cl)c(C(F)(F)F)c2)cc1-c1ccc(C(=O)Nc2ccncc2)cc1

>  <unit_name>
%

>  <%Inh>
0

$$$$
>  <compound>
Cc1ccc(NC(=O)c2ccc(Cl)cc2)cc1-c1ccc(C(=O)Nc2ccncc2)cc1

>  <unit_name>
%

>  <%Inh>
18

$$$$
>  <compound>
O=C1NC(=O)C(c2ccc(Cl)cc2)=C1Nc1ccc(O)cc1

>  <unit_name>
%

>  <%Inh>
0

$$$$
>  <compound>
CCc1ccc(-c2ccc3c(c2)-c2n[nH]cc2S(=O)(=O)N3C)cc1

>  <unit_name>
%

>  <%Inh>
4

$$$$
>  <compound>
NS(=O)(=O)c1cccc(N/C=C2\C(=O)Nc3ccc(S(=O)(=O)Cc4c(Cl)cccc4Cl)cc32)c1

>  <unit_name>
%

>  <%Inh>
0

$$$$
>  <compound>
CSc1ccc(-c2nc3n(c2-c2ccncc2)CCC3)cc1

>  <unit_name>
%

>  <%Inh>
0

$$$$
>  <compound>
O=C(Nc1n[nH]c2nc(-c3cccs3)c(Br)cc12)C1CCCC1

>  <unit_name>
%

>  <%Inh>
66

$$$$
>  <compound>
COc1ccc(Nc2nccc(N3CCC(NC(=O)c4cc5ccccc5s4)C3)n2)cc1 (stereo not drawn)

>  <unit_name>
%

>  <%Inh>
0

$$$$
>  <compound>
Nc1cccc(-c2ccc3c(N)n[nH]c3c2)n1

>  <unit_name>
%

>  <%Inh>
37

$$$$

---

Known %Inh of a selection of compounds
- Tested on: HUNK
- assay_conditions: concentration: 1 μM, replicates: in singlicate; n = 1

>  <compound>
CC[C@@H]1CO[C@H](C(=O)Nc2ccccc2)CN1c1cc(-c2ccc3c(N)n[nH]c3c2)nc(NC)n1 [GSK2376236]

>  <%Inh [%]>
0

$$$$
>  <compound>
COC(=O)c1cccc(NC(=O)NC2CCN(c3ccnc(Nc4ccc(OC)cc4)n3)C2)c1 (stereo not drawn) [GSK1379746]

>  <%Inh [%]>
0

$$$$
>  <compound>
COC(=O)C(Cc1ccccc1)NC(=O)NC1CCN(c2ccnc(Nc3ccc(F)cc3)n2)C1 (stereo not drawn) [GSK1379714]

>  <%Inh [%]>
0

$$$$
>  <compound>
Fc1ccc(-c2nn3cccc(F)c3c2-c2ccncc2)cc1 [GW475620]

>  <%Inh [%]>
0

$$$$
>  <compound>
Cc1ccccc1Cn1ccn2c(=O)cc(N3CCOCC3)nc12 [GSK2269905]

>  <%Inh [%]>
7

$$$$
>  <compound>
COc1ccc(-c2coc3ccc(-c4nnc(C)o4)cc23)cc1

>  <%Inh [%]>
0

$$$$
>  <compound>
CNc1nc(-c2ccc3c(N)n[nH]c3c2)cc(N2C[C@@H](C(=O)NC3CCCCC3)OC[C@H]2C)n1 [GSK2375584]

>  <%Inh [%]>
21

$$$$
>  <compound>
COC(=O)C(NC(=O)NC1CCN(c2ccnc(Nc3ccc(F)cc3)n2)C1)c1ccccc1 (stereo not drawn) [GSK1379712]

>  <%Inh [%]>
0

$$$$
>  <compound>
COc1ccc(CSc2nnc(-c3ccc4c(c3)CCO4)o2)cc1

>  <%Inh [%]>
0

$$$$
>  <compound>
c1ccc(-c2ccnc3[nH]ccc23)cc1 [SB-693578]

>  <%Inh [%]>
2

$$$$
>  <compound>
COc1ccc(Nc2nccc(N3CCC(NC(=O)c4cc5ccccc5s4)C3)n2)cc1 (stereo not drawn) [GSK1379738]

>  <%Inh [%]>
0

$$$$
>  <compound>
Fc1ccc(-c2nc[nH]c2-c2ccncc2)cc1 [SB-217360]

>  <%Inh [%]>
55

$$$$
>  <compound>
Cc1ccccc1-c1cc(-c2c[nH]nc2-c2ccccn2)ccn1 [GW680061]

>  <%Inh [%]>
27

$$$$
>  <compound>
COc1ccc(Nc2nccc(-c3ccc(NC(=O)c4cc5cc(F)ccc5[nH]4)cc3)n2)cc1 [GSK1229496]

>  <%Inh [%]>
0

$$$$
>  <compound>
COc1ccc(CSc2nnc(-c3ccc4nccn4c3)o2)cc1C(F)(F)F

>  <%Inh [%]>
0

$$$$
>  <compound>
Cc1ccc(NC(=O)c2ccc(Cl)cc2)cc1-c1ccc(C(=O)Nc2ccncc2)cc1 [GSK1398467]

>  <%Inh [%]>
8

$$$$
>  <compound>
O=C1NC(=O)C(c2ccc(Cl)cc2)=C1Nc1ccc(O)cc1 [SB-340867]

>  <%Inh [%]>
0

$$$$
>  <compound>
CS(=O)(=O)Cc1ccc(Nc2nccc(-c3c(-c4cccc(NC(=O)C5CCCCC5)c4)nn4ncccc34)n2)cc1 [GSK350559]

>  <%Inh [%]>
7

$$$$
